Origin of the recorded values: patent US11267826B2

system: hyper-permeable E. coli 901C; test: Broth microdilution MIC assay, hyper-permeable E. coli; type: cell-based; conditions: Escherichia coli, read-out: E. coli 901C MIC
measuredMetric: MIC

// worked examples, MIC included
CO/N=C(\C(=O)N[C@H]1Cc2cccc(C(=O)O)c2OB1O)c1csc(N)n1; < 64 µg/mL
Nc1nc(/C(=N/OCCO)C(=O)N[C@H]2Cc3cccc(C(=O)O)c3OB2O)cs1; > 128 µg/mL
NCCON=C(C(=O)N[C@H]1Cc2cccc(C(=O)O)c2OB1O)c1nnn[nH]1; > 128 µg/mL
O=C(N[C@H]1Cc2cccc(C(=O)O)c2OB1O)/C(=N\O)c1csc(NCc2ccccn2)n1; > 128 µg/mL

Parameters: items (list). Returns: MIC for each item.
1. Nc1nc(/C(=C\c2cccnc2)C(=O)N[C@H]2Cc3cccc(C(=O)O)c3OB2O)cs1
2. CNC(=O)C(C)(C)O/N=C(\C(=O)N[C@H]1Cc2cccc(C(=O)O)c2OB1O)c1csc(N)n1
3. Nc1nc(/C(=C/C(=O)O)C(=O)N[C@H]2Cc3cccc(C(=O)O)c3OB2O)cs1

Result:
["< 64 µg/mL", "< 64 µg/mL", "64 to 128 µg/mL"]

Task: If you can, please state the reported MIC value of CNc1nc(/C(=N/OCc2ccccc2)C(=O)N(C)[C@H]2Cc3cccc(C(=O)O)c3OB2O)cs1 .
Result: > 128 µg/mL

====

Parameter MIC, tested on hyper-permeable E. coli 901C, listed per item.

Answered cases to consult:
Nc1nc(/C(=N/OCC(F)(F)F)C(=O)N[C@H]2Cc3cccc(C(=O)O)c3OB2O)cs1; < 64 µg/mL
COc1cc2c(c(C(=O)O)c1)OB(O)[C@@H](NC(=O)/C(=N\O)c1csc(N)n1)C2; < 64 µg/mL
CNc1nc(/C(=N/O)C(=O)N[C@H]2Cc3cccc(C(=O)O)c3OB2O)cs1; > 128 µg/mL
O=C(N[C@H]1Cc2cccc(C(=O)O)c2OB1O)/C(=N/O)c1csc(NCCc2ccncc2)n1; > 128 µg/mL
CC(O/N=C(\C(=O)N[C@H]1Cc2cccc(C(=O)O)c2OB1O)c1csc(N)n1)C(=O)O (some centres unmarked); < 64 µg/mL

Report MIC for each item below.
1. Nc1nc(/C(=N/O)C(=O)N[C@H]2Cc3ccc(F)c(C(=O)O)c3OB2O)cs1
2. Nc1nc(/C(=N/O)C(=O)N[C@H]2Cc3ccc(C=O)c(C(=O)O)c3OB2O)cs1
3. CO/N=C(\C(=O)N[C@H]1Cc2cccc(C(=O)O)c2OB1O)c1nsc(N)n1

Result:
< 64 µg/mL
> 128 µg/mL
< 64 µg/mL

====

test system: hyper-permeable E. coli 901C
Can you tell me MIC for the items I'm about to list?

Example compounds with recorded MIC:
O=C(N[C@H]1Cc2cccc(C(=O)O)c2OB1O)C(=NO)c1csc(-n2ccnc2)n1; > 128 µg/mL
NCCCC[C@H](NC(=O)CO/N=C(\C(=O)N[C@H]1Cc2cccc(C(=O)O)c2OB1O)c1csc(N)n1)C(=O)O; < 64 µg/mL
O=C(N[C@H]1Cc2cccc(C(=O)O)c2OB1O)/C(Cn1cncn1)=N\O; > 128 µg/mL
Nc1nc(/C(=N/OCC(O)CO)C(=O)N[C@H]2Cc3cccc(C(=O)O)c3OB2O)cs1 (stereo partly shown); < 64 µg/mL
Nc1ncc(C(=NO)C(=O)N[C@H]2Cc3cccc(C(=O)O)c3OB2O)s1 (stereo in doubt) [Example 95]; > 128 µg/mL
Nc1nc(/C(=N/OCC(=O)N2CCNCC2)C(=O)N[C@H]2Cc3cccc(C(=O)O)c3OB2O)cs1; < 64 µg/mL

Dear colleague, could you please provide MIC for the compounds listed below?
1. CO/N=C(\C(=O)N[C@H]1Cc2cccc(C(=O)O)c2OB1O)c1cccnc1
2. N=C(N)Nc1nc(/C(=N/O)C(=O)N[C@H]2Cc3cccc(C(=O)O)c3OB2O)cs1
3. COc1cc2c(c(C(=O)O)c1)OB(O)[C@@H](NC(=O)/C(=N\OC(C)(C)C(N)=O)c1csc(N)n1)C2
4. Nc1nc(/C(=N/O)C(=O)N[C@H]2Cc3cccc(C(=O)O)c3OB2O)c(Cl)s1
5. O=C(N[C@H]1Cc2cccc(C(=O)O)c2OB1O)/C(=N/O)c1nnn[nH]1
6. O=C(O)CNc1nc(/C(=N/O)C(=O)N[C@H]2Cc3cccc(C(=O)O)c3OB2O)cs1
7. CC(=O)NCCO/N=C(\C(=O)N[C@H]1Cc2cccc(C(=O)O)c2OB1O)c1csc(N)n1

Result:
["> 128 µg/mL", "> 128 µg/mL", "< 64 µg/mL", "64 to 128 µg/mL", "> 128 µg/mL", "> 128 µg/mL", "64 to 128 µg/mL"]

Report MIC for each item below.
1. Nc1nc(/C(=C\C(=O)O)C(=O)N[C@H]2Cc3cccc(C(=O)O)c3OB2O)cs1
2. Nc1cc(/C(=N/O)C(=O)N[C@H]2Cc3cccc(C(=O)O)c3OB2O)ccn1

Result:
1. 64 to 128 µg/mL
2. > 128 µg/mL

Task: Quick one: MIC of CO/N=C(/C(=O)N[C@H]1Cc2cccc(C(=O)O)c2OB1O)c1cccnc1 ?
Result: > 128 µg/mL

====

Could you please report measured MIC for the items listed next?
system: hyper-permeable E. coli 901C

CO/N=C(\C(=O)N[C@H]1Cc2cccc(C(=O)O)c2OB1O)c1ccc2c(c1)CNC2; > 128 µg/mL
CCO/N=C(\C(=O)N[C@H]1Cc2cccc(C(=O)O)c2OB1O)c1csc(N)n1; < 64 µg/mL
Nc1ncc(C(=NO)C(=O)N[C@H]2Cc3cccc(C(=O)O)c3OB2O)s1 (stereo in doubt) [Example 96]; > 128 µg/mL
COc1cc2c(c(C(=O)O)c1)OB(O)[C@@H](NC(=O)/C(=N\OC(C)(C)C(=O)O)c1csc(N)n1)C2; < 64 µg/mL

Give me MIC for each of these compounds, listed below.
1. NCCCCCNC(=O)CO/N=C(\C(=O)N[C@H]1Cc2cccc(C(=O)O)c2OB1O)c1csc(N)n1
2. N=C(NCCN)c1ccc(OCCO/N=C(\C(=O)N[C@H]2Cc3cccc(C(=O)O)c3OB2O)c2csc(N)n2)cc1

Result:
["< 64 µg/mL", "< 64 µg/mL"]

====

system: hyper-permeable E. coli 901C
measuredMetric: MIC

Some compounds with recorded MIC:
NCCNC(=O)CO/N=C(\C(=O)N[C@H]1Cc2cccc(C(=O)O)c2OB1O)c1csc(N)n1 [Example 54]; < 64 µg/mL
Nc1nc(/C(=N/O)C(=O)N[C@H]2Cc3cc(O)cc(C(=O)O)c3OB2O)cs1 [Example 43]; 64 to 128 µg/mL
NC(=O)CNc1nc(/C(=N/O)C(=O)N[C@H]2Cc3cccc(C(=O)O)c3OB2O)cs1 [Example 109]; > 128 µg/mL

Read the next record carefully.
Task: Fill in the blank: the reported MIC of Nc1nc(/C(=N/OCC(=O)NCCCCCNC(=O)CBr)C(=O)N[C@H]2Cc3cccc(C(=O)O)c3OB2O)cs1 [Example 78] is ____.
Result: > 128 µg/mL

====

tested on: hyper-permeable E. coli 901C
measuredMetric: MIC

Worked set:
CC(C)O/N=C(\C(=O)N[C@H]1Cc2cccc(C(=O)O)c2OB1O)c1csc(N)n1 [Example 97]; > 128 µg/mL
Nc1nc(/C(=N/O)C(=O)N[C@H]2Cc3cccc(C(=O)O)c3OB2O)ns1 [Example 19]; > 128 µg/mL
CNC(=O)C(C)O/N=C(\C(=O)N[C@H]1Cc2cccc(C(=O)O)c2OB1O)c1csc(N)n1 (stereo partly shown) [Example 70]; < 64 µg/mL

Consider the following items and state reported MIC for each.
1. Nc1nc(/C(=N/O)C(=O)N[C@H]2Cc3cc(Cl)cc(C(=O)O)c3OB2O)cs1 [Example 44]
2. CC(O/N=C(\C(=O)N[C@H]1Cc2cccc(C(=O)O)c2OB1O)c1csc(N)n1)C(=O)NCCNCCN (stereo partly shown) [Example 104]
3. CC(C)(O/N=C(\C(=O)N[C@H]1Cc2cc(O)cc(C(=O)O)c2OB1O)c1csc(N)n1)C(N)=O [Example 82]

Result:
1: < 64 µg/mL; 2: < 64 µg/mL; 3: < 64 µg/mL

====

Below are MIC values measured for hyper-permeable E. coli 901C.

Can you give me MIC for all of these, one by one?
1. Nc1nc(/C(=N/O)C(=O)N[C@H]2Cc3cc(CN4CCCC4)cc(C(=O)O)c3OB2O)cs1 [Example 33]
2. Nc1nc(/C(=C/c2cccnc2)C(=O)N[C@H]2Cc3cccc(C(=O)O)c3OB2O)cs1 [Example 87]
3. Nc1nc(/C(=N/O)C(=O)N[C@H]2Cc3ccc(/C=C/C(=O)O)c(C(=O)O)c3OB2O)cs1 [Example 27]

Result:
> 128 mg/L
< 64 mg/L
64 to 128 mg/L

Provide each entry's MIC from the list below.
1. Nc1nc(/C(=N/O)C(=O)N[C@@H]2Cc3cccc(C(=O)O)c3OB2O)cs1 [Example 9]
2. Nc1nc(/C(=N/O)C(=O)N[C@H]2Cc3ccc(O)c(C(=O)O)c3OB2O)cs1 [Example 21]

Result:
> 128 mg/L
> 128 mg/L
